Test system: HCC cell lines, Mahlavu, PLC5, HepG2, and Huh7
Assay: MTT cell viability test in HCC cell lines
Details: Table 3-1; HCC cell lines, 72 hours, MTT
readout: IC50

Sample answers from the record:
compound	testedTarget	IC50
COc1ccccc1N1CCN(CCCCNC(=O)c2ccc3ccccc3c2)CC1.Cl.Cl	HCC cell lines, Mahlavu, PLC5, HepG2, and Huh7	> 10 µM
O=C1Nc2ccc3ncsc3c2/C1=C/Nc1ccc(S(=O)(=O)Nc2ccccn2)cc1	HCC cell lines, Mahlavu, PLC5, HepG2, and Huh7	5 to 10 µM
O=C(O)CNC(=O)C(CS)Cc1ccccc1 (racemic)	HCC cell lines, Mahlavu, PLC5, HepG2, and Huh7	> 10 µM

Provide IC50 values for the following items, in order.
1. CC(COc1ccccc1)N(CCCl)Cc1ccccc1 (centres unmarked)
2. CC1=CC(=O)C2=C(C)CC[C@@H]3[C@H](OC(=O)[C@H]3C)[C@@H]12
3. CC1=C(CO)C(=O)O[C@@H]([C@@H](C)[C@H]2CC[C@H]3[C@@H]4C[C@H]5O[C@]56[C@@H](O)C=CC(=O)[C@]6(C)[C@H]4CC[C@]23C)C1
4. C[C@@H]1C(=O)O[C@H]2C[C@@]34[C@H]5C[C@@H](C(C)(C)C)[C@]36[C@@H](OC(=O)[C@@H]6O)O[C@@]4(C(=O)O5)[C@]21O [ginkgolide A]
5. CC(/C=C/C(=O)NO)=C\[C@@H](C)C(=O)c1ccc(N(C)C)cc1

> 10 µM
> 10 µM
0.1 to 1 µM
> 10 µM
0.1 to 1 µM

====

System: HCC cell lines
Assay: Drug efficacy label of top 10 CMap drugs (MTT or clonogenic);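 further: label 1 means effective by MTT or clonogenic assay and 4 means ineffective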
Type: cell-based
Settings: Table 2-3; labels (1) and (4); gene set in which the drug ranked top 10
readout: drug efficacy label

Look up drug efficacy label of "Nc1nc2nn[nH]c2c(=O)[nH]1" and report it.
8-azaguanine (4)
